Experiment: Cytotoxicity against African green monkey Vero E6 cells assessed as cell viability incubated for 48 hrs by crystal violet staining assay
Format: toxicity, cell-based, Vero C1008
Details: African green monkey (Chlorocebus sabaeus)
For each record, check the reported IC50 at 48 h: if it is below 200 µM write Met, else write Not met.

Compound: O=C1c2cc(N3CCOCC3)c(Cc3ccccc3)nc2C(c2ccco2)N1Cc1ccco1 (stereo unspecified)
Cat: Not met

Compound: O=C1c2cc(N3CCOCC3)c(Cc3ccccc3)nc2C(c2ccoc2)N1Cc1ccco1 (stereo unspecified)
Cat: Met

Compound: O=C1c2cc(N3CCOCC3)c(Cc3ccccc3)nc2C(C2CCCO2)N1Cc1ccco1 (stereo unspecified)
Cat: Not met

Compound: O=C1c2cc(N3CCOCC3)c(Cc3ccc(O)cc3)nc2C(c2ccco2)N1Cc1ccco1 (stereo unspecified)
Cat: Met

Compound: O=C1c2cc(N3CCOCC3)c(Cc3ccccc3)nc2C(c2ccoc2)N1CC1CCCO1 (stereo unspecified)
Cat: Not met

Compound: O=C1c2cc(N3CCOCC3)c(Cc3ccccc3)nc2C(c2ccco2)N1CC1CCCO1 (stereo unspecified)
Cat: Met
